Test system: MDA-MB-231 breast
Experiment: NCI tumour cell line growth inhibition, 48 h
value.type: TGI

Check out these entries, answers already filled in.
compound	TGI
CCOc1ccccc1/C=N\N=C(\N)N/N=C/c1ccccc1OCC	> 100 µM
COC(=O)CC(=O)Nc1sccc1S(=O)(=O)c1ccccc1	> 100 µM
O=C(c1cccnc1)c1cc(-c2ccccn2)c(=O)n2ccccc12	> 100 µM
CN(C(=O)c1ccncc1)c1ccccc1	> 100 µM
O=C(O)CC1OCC=C2CN3CCC45C6=CC(=O)C(=O)C([N+](=O)[O-])=C6NC4C1C2CC35 (stereo not drawn)	> 100 µM

// fetch TGI for Nc1c(C(=O)Nc2ccccc2)sc2nc3c(cc12)CN(Cc1ccccc1)CC3 ; system: MDA-MB-231 breast
> 100 µM

// fetch TGI for Cc1ccc(S(=O)(=O)NNC2(NS(=O)(=O)c3ccc(Cl)cc3)C(Cl)=C(Cl)C(=O)c3ccccc32)cc1 (stereo not drawn) ; system: MDA-MB-231 breast
44.9 µM

// fetch TGI for O=C(CCCSc1nc(-c2ccccc2)cc(-c2ccc(Cl)cc2)n1)NO ; system: MDA-MB-231 breast
11.6 µM

// fetch TGI for Nc1nc(N)c2[nH]cnc2n1 (tested in a mixture with another compound) ; system: MDA-MB-231 breast
> 100 µM

// fetch TGI for CCN(CC)c1ccc(C(=N)c2ccc(N(C)C)cc2)cc1 ; system: MDA-MB-231 breast
3.87 µM

// fetch TGI for CC(C)(CO)NC(=O)Nc1c(C(F)(F)F)cc(-c2ccccc2)[nH]c1=O ; system: MDA-MB-231 breast
> 100 µM

// fetch TGI for COc1cc(C2C3=C(COC3=O)Nc3cc4c(cc32)CCC4)cc2c1OCO2 (stereo not drawn) ; system: MDA-MB-231 breast
5.11 µM

// fetch TGI for COC(=O)C1=C(OC(=O)c2ccc(Cl)cc2)C(C(=O)OC)[C@@]2(O)[C@@H](C(=O)OC)C(c3ccccc3Cl)C[C@@H]1[C@@H]2C(=O)OC (stereo partly drawn) ; system: MDA-MB-231 breast
17.5 µM

// fetch TGI for CCCOC(=O)CCn1c(SC)nc2[nH]cc(-c3ccccc3)c2c1=O ; system: MDA-MB-231 breast
> 100 µM

---

Test system: CCRF-CEM leukemia
Test: NCI tumour cell line growth inhibition, 48 h; in the data active means GI50 below about 0.43 µM; inactive means the rest
Outcome field: choose from 1 (yes) for active, 0 (no) for inactive

Assay result, entry CCNCCNc1cc(C2CCCCC2)c(C#N)c2nc3ccccc3n12 — outcome?
0 (no)

Assay result, entry COc1cc(C2C3=C(COC3=O)Nc3cc4c(cc32)CCC4)cc2c1OCO2 (centres undefined) — outcome?
1 (yes)

Assay result, entry CC(C)N1C(NNC(=O)c2cnccn2)=NS(=O)(=O)c2ccccc21 — outcome?
0 (no)

Assay result, entry CC1(C)CC[C@]2(C(=O)N3CCOCC3)CC[C@]3(C)C(=CC[C@@H]4[C@@]5(C)C/C(=C/c6ccncc6)C(=O)C(C)(C)[C@@H]5CC[C@]43C)[C@@H]2C1 — outcome?
0 (no)

Assay result, entry Cn1ccnc1C(=O)/C=C/c1ccc(CC(=O)Nc2ccc(C(F)(F)F)cc2)cc1 — outcome?
0 (no)

Assay result, entry CCCOC(=O)CCn1c(SC)nc2[nH]cc(-c3ccccc3)c2c1=O — outcome?
0 (no)

Assay result, entry COc1cc(C2CC(c3ccc(N(C)C)cc3)=NN2C(C)=O)cc(OC)c1OC (centres undefined) — outcome?
0 (no)

Assay result, entry O=C(OCCBr)c1ccc(Cl)c([N+](=O)[O-])c1 — outcome?
0 (no)

Assay result, entry COc1ccc(-c2nn(-c3cccc(Cl)c3)cc2-c2cc(-c3ccccc3)nc(N)n2)cc1 — outcome?
0 (no)

---

Tested on: SN12C renal
Test: NCI tumour cell line growth inhibition, 48 h
Measured TGI accompanies every entry in the list below.
Report only the number, with the unit µM understood.

Check out these entries, answers already filled in.
In [3]: df
Out[3]:
                                   compound  value_type  measurement_units  quantitative_readout
0  C=C1CCC2[C@@H](CCC3[C@]2(C)CCC[C@]3(C)C(=O)OC)C1CCO (stereo not given in full)         TGI                 µM                  27.5
1  COc1cc(C(=O)/C=C/c2cccnc2Nc2ccccc2)cc(OC)c1OC         TGI                 µM                  2.55
2               Nc1ccc(-c2ccc(N)cc2I)c(I)c1         TGI                 µM                  55.8

In the following, a different compound is considered.
Quick one: give measured TGI for C/C(=N\NC(=S)Nc1ccc(C)cc1)c1nc2ncccc2[nH]1
30.8

---

Test system: DMS 114 small cell lung
Experiment: NCI tumour cell line growth inhibition, 48 h
value.type: TGI

// fetch TGI for OCC1OC(n2cnc3c(=S)nc[nH]c32)C(O)C1O (centres undefined) ; system: DMS 114 small cell lung
2490 µM

// fetch TGI for CN1CCN(c2cc(-c3cc4ccccc4o3)oc(=O)c2C#N)CC1 ; system: DMS 114 small cell lung
> 100 µM

// fetch TGI for O=C(CCc1cc(-c2ccccc2)nc(=S)[nH]1)Nc1ccccc1[N+](=O)[O-] ; system: DMS 114 small cell lung
> 100 µM

// fetch TGI for CCC(=O)N(O)C(C)(C)C ; system: DMS 114 small cell lung
> 100 µM

---

System: DU-145 prostate
Assay: NCI tumour cell line growth inhibition, 48 h
Measured TGI accompanies every entry in the list below.

In [3]: df
Out[3]:
                                   molecule   result
0  CC(C)(C#N)c1cc(C(=O)Nc2cc(Nc3ncccc3-c3ncnc4nc[nH]c34)ccc2F)cc(C(F)(F)F)c1  > 10 µM

Quick one: give measured TGI for CCOc1ccc(NCC2CC/C(=C\c3ccc(O)cc3)C2=O)cc1 (centres undefined)
> 59.9 µM

Quick one: give measured TGI for COCCNc1cc(NC(=O)N2CCCc3cc(CN4CCN(C)CC4=O)c(C=O)nc32)ncc1C#N
> 50 µM

Quick one: give measured TGI for COC(=O)CC(=O)Nc1sccc1S(=O)(=O)c1ccccc1
> 100 µM

---

Measured TGI accompanies every entry in the list below.
Test system: KM20L2 colon
Assay: NCI tumour cell line growth inhibition, 48 h

In [3]: df
Out[3]:
                                   compound    result
0  COc1ccc(-c2cc(=O)c3cc4c(cc3[nH]2)OCO4)cc1  > 100 µM
1  COC(=O)C1=C(C(=O)OC)SC(=C(N=Nc2ccccc2)c2ccccc2)S1  > 100 µM
2  O=C(NN1C(=O)CSC1c1ccc(C(F)(F)F)cc1)c1ccncc1 (stereo not given)  > 100 µM

// fetch TGI for C=C=C(Sc1ccccc1)C(C)(C)OC(C)=O ; system: KM20L2 colon
58.7 µM

// fetch TGI for c1ccc(C2OCCO2)c(OCCOc2cc(OCCOc3ccccc3C3OCCO3)c(OCCOc3ccccc3C3OCCO3)cc2OCCOc2ccccc2C2OCCO2)c1 ; system: KM20L2 colon
> 100 µM

---

Measured GI50 accompanies every entry in the list below.
System: OVCAR-4 ovarian
Assay: NCI tumour cell line growth inhibition, 48 h

>>> print(df.to_string())
                                   compound    result
0  O=C(c1cccnc1)c1cc(-c2ccccn2)c(=O)n2ccccc12  > 100 µM
1  CC(C)C[C@H](NC(=O)[C@@H](O)[C@H](N)Cc1ccc([N+](=O)[O-])cc1)C(=O)O   > 25 µM
2  FC(F)(F)c1ccc(-c2cnc(Cl)nc2NCc2cc(C(F)(F)F)cc(C(F)(F)F)c2)cc1   2.94 µM
3  Nc1c(C(=O)Nc2ccccc2)sc2nc3c(cc12)CN(Cc1ccccc1)CC3   1.97 µM
4  O=C(CN1CCN(c2ccccc2)CC1)N1CCN(c2nnc(-c3ccc(Cl)cc3)c(-c3ccc(Cl)cc3)n2)CC1     11 µM

In the following, a different compound is considered.
// fetch GI50 for CC(=O)O[C@H]1CC[C@@]2(C)[C@@H](CC[C@@H]3[C@@H]2CC[C@]2(C)C=C(C=O)C[C@@H]32)C1 ; system: OVCAR-4 ovarian
3.48 µM

---

Measured TGI accompanies every entry in the list below.
Test system: SF-268 CNS
Assay: NCI tumour cell line growth inhibition, 48 h
*1 amine or outer side, *2 acyl side, *3 side chain or, on linkers, in order; H or OH if unused. Where a SMILES comes first, the peptide text is derived from it. [ ]: non-standard residue; d: D form. X33 = C=CCC(O[*:1])C(=O)[*:2]; NMeV = CN[CH](C(=O)O)C(C)C; NMeA = CN[CH](C)C(=O)O; βAla = NCCC(=O)O

Check out these entries, answers already filled in.
compound	TGI
FC(F)(F)c1ccc(-c2cnc(Cl)nc2NCc2cc(C(F)(F)F)cc(C(F)(F)F)c2)cc1	> 100 µM
O=C1[C@@H]2C[C@@H](O)CN2C(=O)c2ccccc2N1CCCO	> 100 µM
c1ccc(P(CCP(CCP(c2ccccc2)c2ccccc2)c2ccccc2)CCP(c2ccccc2)c2ccccc2)cc1 (centres undefined)	> 10 µM
C=CCC1OC(=O)CCNC(=O)C(C)N(C)C(=O)C(C(C)C)N(C)C(=O)C(C(C)CC)NC(=O)C2CCCN2C1=O (centres undefined) (cyclo([X33]PI[NMeV][NMeA][βAla]); configuration not given here)	> 100 µM

Quick one: give measured TGI for CC(C)(C)OC(=O)N(CCNS(=O)(=O)c1cccc2cnccc12)CCC(=O)ON1C(=O)CCC1=O
> 100 µM

Quick one: give measured TGI for O=c1oc2c(ccc3ccccc32)cc1C1=CSC2=NCCN12
> 100 µM

Quick one: give measured TGI for COC(=O)[C@@]12C(=O)C(C)C(=O)[C@]1(C)C(C)=C[C@H]1[C@]3(C=O)CC[C@H](OC(C)=O)C(C)(C)[C@H]3CC[C@@]12C (some centres undefined)
> 100 µM

Quick one: give measured TGI for COc1ccc(C2(O)c3ccccc3C(=O)N(C)C2(O)c2ccc(OC)cc2)cc1 (centres undefined)
> 100 µM

Quick one: give measured TGI for CCN(CC)CC(C(=O)Nc1c(C)cccc1C)/C(C)=N\NC(=O)c1ccncc1 (centres undefined)
> 100 µM

Where do these numbers come from? They come from PubChem BioAssay (NCI).
